Target: P2Y12 receptor (Homo sapiens, UniProt Q9H244)
Sequence (Q9H244 whole entry): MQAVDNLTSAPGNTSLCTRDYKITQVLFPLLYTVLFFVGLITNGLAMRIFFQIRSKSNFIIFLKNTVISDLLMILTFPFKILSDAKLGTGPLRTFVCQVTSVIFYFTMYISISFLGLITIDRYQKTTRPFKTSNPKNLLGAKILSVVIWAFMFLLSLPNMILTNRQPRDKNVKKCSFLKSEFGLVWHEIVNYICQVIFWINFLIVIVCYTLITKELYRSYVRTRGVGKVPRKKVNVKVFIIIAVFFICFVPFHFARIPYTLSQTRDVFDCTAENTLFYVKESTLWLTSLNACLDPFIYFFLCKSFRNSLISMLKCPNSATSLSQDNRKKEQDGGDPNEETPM
Assay: Inhibition of [33P]2MeS-ADP binding to washed human platelet membranes (Assay 1)
Design: the P2Y12 receptor, which is found on the surface of platelets; tissue Interstate Blood bank, Memphis, Tenn; host or cells: human platelets from platelet rich plasma
Details: washed human platelet membranes
quantity-name: pKi
# log scale: pKi equals minus log10 of the concentration in mol/L

{"columns": ["compound", "quantity-name", "result-value"],
 "data": [
  ["CCc1cc2c(N3CCN(C(=O)Cc4ccccc4)CC3)nc(NCCCO)nc2s1 [Example 9]", "pKi", 5.49]
]}

# lookup: CCc1cc2c(N3CCN(C(=O)Cc4ccccc4)CC3)nc(NCc3ccco3)nc2s1 [Example 8] on P2Y12 receptor (Homo sapiens, UniProt Q9H244), pKi = 5.03

---

Target: P2Y12 receptor (Homo sapiens)
Experiment: Inhibition of [33P]2MeS-ADP binding to washed human platelet membranes (Assay 1)
Design: the P2Y12 receptor, which is found on the surface of platelets; tissue Interstate Blood bank, Memphis, Tenn; host or cells: human platelets from platelet rich plasma
Conditions: highest concentration tested 10 μM
Description: 1. Inhibition of [^33P]2MeS-ADP Binding to Washed Human Platelet Membranes. The ability of a test compound to bind to the P2Y12 receptor was evaluated in a platelet membrane binding assay. […] Inhibition of binding of the labeled material was measured and correlated to the amount and potency of the test compound. […] The pooled platelet preparation was counted using a Coulter Counter. […]
quantity-name: inhibition at 10 µM (%)
Kindly answer with a numeric value in %, unit omitted.

Take a look at these entries with their results.
{"columns": ["smiles-representation", "inhibition at 10 µM [%]"],
 "data": [
  ["CCc1cc2c(N3CCN(C(=O)Cc4ccccc4)CC3)nc(NCc3ccccc3)nc2s1", 44],
  ["CCc1cc2c(N3CCN(C(=O)Cc4ccccc4)CC3)nc(NC3CCCC3)nc2s1", 43.6],
  ["CCc1cc2c(N3CCN(C(=O)Cc4ccccc4)CC3)nc(NCc3ccco3)nc2s1", 42.2]
]}

The compound listed as CCc1cc2c(N3CCN(C(=O)Cc4ccccc4)CC3)nc(NCc3ccc(F)cc3)nc2s1 has a reported inhibition at 10 µM of 45.6

---

Target: P2Y12 receptor (Homo sapiens, UniProt Q9H244)
Assay: Human P2Y12 recombinant cell membrane binding assay with 33P 2MeS-ADP (Assay 3)
Design: expressed in transfected cells; host or cells: HEK cells
Settings: highest concentration tested 1 μM; read-out: [33P]-2MeS-ADP Binding to Recombinant Human P2Y12 Membranes (Assay 3) % Inhibition
This section presents compounds with their documented inhibition at 1 µM values.
Please reply with the bare figure in % and do not write the unit itself.

Some compounds with known inhibition at 1 µM results, for comparison:
{"columns": ["smiles-representation", "study-target", "quantity-name", "result-value"],
 "data": [
  ["CCc1cc2c(N3CCN(C(=O)Cc4ccccc4)CC3)nc(NCCO)nc2s1", "P2Y12 receptor (Homo sapiens, UniProt Q9H244)", "inhibition at 1 µM", 51],
  ["CCc1cc2c(N3CCN(C(=O)c4cccc(-c5ccccc5)c4)CC3)nc(NC[C@@H](O)CO)nc2s1", "P2Y12 receptor (Homo sapiens, UniProt Q9H244)", "inhibition at 1 µM", 88],
  ["CCc1cc2c(N3CCN(C(=O)c4ccc(-c5ccccc5)cc4)CC3)nc(NC[C@H](O)CO)nc2s1", "P2Y12 receptor (Homo sapiens, UniProt Q9H244)", "inhibition at 1 µM", 90],
  ["CCc1cc2c(N3CCN(C(=O)c4ccc(-c5ccccc5)cc4)CC3)nc(NC[C@@H](O)CO)nc2s1", "P2Y12 receptor (Homo sapiens, UniProt Q9H244)", "inhibition at 1 µM", 92],
  ["CCc1cc2c(N3CCN(C(=O)c4ccc(-c5ccccc5)cc4)CC3)nc(NC(CO)CO)nc2s1", "P2Y12 receptor (Homo sapiens, UniProt Q9H244)", "inhibition at 1 µM", 93]
]}

Let's switch to this compound now.
Lab note: measured inhibition at 1 µM of CCc1cc2c(N3CCN(C(=O)c4cccc(-c5ccccc5)c4)CC3)nc(NC[C@H](O)CO)nc2s1 was 89

---

pIC50 values for the compounds below.
Target: UniProt:Q9H244
Assay: Inhibition of [33P]2MeS-ADP binding to washed human platelet membranes (Assay 1)
Set-up: the P2Y12 receptor, which is found on the surface of platelets; tissue Interstate Blood bank, Memphis, Tenn; host or cells: human platelets from platelet rich plasma
Conditions: washed human platelet membranes
pIC50: −log10 of the molar value.

Please review the entries below; each comes with its answer.
{"columns": ["smiles-representation", "pIC50"],
 "data": [
  ["CCc1cc2c(N3CCN(C(=O)Cc4ccccc4)CC3)nc(NC3CCCCC3)nc2s1", "< 5.00"],
  ["CCc1cc2c(N3CCN(C(=O)Cc4ccccc4)CC3)nc(NCc3ccc(F)cc3)nc2s1", "< 5.00"],
  ["CCc1cc2c(N3CCN(C(=O)Cc4ccccc4)CC3)nc(NCc3cccc(F)c3)nc2s1", "< 5.00"],
  ["CCc1cc2c(N3CCN(C(=O)Cc4ccccc4)CC3)nc(NCc3ccco3)nc2s1", 5.01],
  ["CCc1cc2c(N3CCN(C(=O)Cc4ccccc4)CC3)nc(NCCCO)nc2s1", 5.47],
  ["CCc1cc2c(N3CCN(C(=O)Cc4ccccc4)CC3)nc(NCc3ccccc3)nc2s1", "< 5.00"],
  ["CCc1cc2c(N3CCN(C(=O)Cc4ccccc4)CC3)nc(NC3CCCC3)nc2s1", "< 5.00"]
]}

Proceed to the following item.
For CCc1cc2c(N3CCN(C(=O)Cc4ccccc4)CC3)nc(NCCCc3ccccc3)nc2s1 the compound record lists pIC50 as < 5.00

---

Listing of recorded inhibition at 10 µM by entry.
Biological target: P2Y12 receptor (Homo sapiens, UniProt Q9H244)
Assay: Inhibition of [33P]2MeS-ADP binding to washed human platelet membranes (Assay 1)
Parameters: the P2Y12 receptor, which is found on the surface of platelets; tissue Interstate Blood bank, Memphis, Tenn; host or cells: human platelets from platelet rich plasma
Settings: highest concentration tested 10 μM
Just the number please, in %, no unit attached.

// solved cases for inhibition at 10 µM follow
{"columns": ["smiles-representation", "study-target", "inhibition at 10 µM [%]"],
 "data": [
  ["CCc1cc2c(N3CCN(C(=O)Cc4ccccc4)CC3)nc(NCCCO)nc2s1", "P2Y12 receptor (Homo sapiens, UniProt Q9H244)", 75],
  ["CCc1cc2c(N3CCN(C(=O)Cc4ccccc4)CC3)nc(NCCCc3ccccc3)nc2s1", "P2Y12 receptor (Homo sapiens, UniProt Q9H244)", 37.4],
  ["CCc1cc2c(N3CCN(C(=O)Cc4ccccc4)CC3)nc(NC3CCCCC3)nc2s1", "P2Y12 receptor (Homo sapiens, UniProt Q9H244)", 37.3]
]}

Lab book: inhibition at 10 µM of CCc1cc2c(N3CCN(C(=O)Cc4ccccc4)CC3)nc(NCc3cccc(F)c3)nc2s1 noted as 39.9

---

Target: UniProtKB Q9H244
Test: Human P2Y12 recombinant cell membrane binding assay with 33P 2MeS-ADP (Assay 3)
Design: expressed in transfected cells; host or cells: HEK cells
Conditions: HEK cell membranes expressing P2Y12; multiple lines = multiple runs
Note to self: use rule met only for IC50 readings below 20 nM; a reading exactly at 20 nM still gets rule not met.

Take a look at these entries with their results.
{"columns": ["smiles-representation", "label"],
 "data": [
  ["CCc1cc2c(N3CCN(C(=O)c4ccc(-c5ccccc5)cc4)CC3)nc(NCCC(=O)O)nc2s1", "rule met"],
  ["CCc1cc2c(N3CCN(C(=O)c4cccc(-c5ccccc5)c4)CC3)nc(NC(CO)CO)nc2s1", "rule not met"],
  ["CCc1cc2c(N3CCN(C(=O)c4ccc(-c5ccccc5)cc4)CC3)nc(NC(CO)CO)nc2s1", "rule not met"]
]}

Check if IC50 falls below 20 nM for CCc1cc2c(N3CCN(C(=O)c4ccc(-c5ccccc5)cc4)CC3)nc(NCCC(=O)NC(CO)CO)nc2s1 . rule not met

Consider CCOC(CCNc1nc(N2CCN(C(=O)c3ccc(-c4ccccc4)cc3)CC2)c2cc(CC)sc2n1)OCC . Does its IC50 lie strictly below 20 nM? rule not met

---

Target: P2Y12 receptor (Homo sapiens)
Assay: Human P2Y12 recombinant cell membrane binding assay with 33P 2MeS-ADP (Assay 3)
Design: expressed in transfected cells; host or cells: HEK cells
Conditions: highest concentration tested 10 μM; read-out: [33P]-2MeS-ADP Binding to Recombinant Human P2Y12 Membranes (Assay 3) % Inhibition
# inhibition at 10 µM >= 90% gives class 1, anything below gives class 0

These solved cases illustrate the format of a correct answer.
{"columns": ["smiles-representation", "study-target", "label"],
 "data": [
  ["CCc1cc2c(N3CCN(C(=O)c4ccc(-c5ccccc5)cc4)CC3)nc(NC[C@H](O)CO)nc2s1", "P2Y12 receptor (Homo sapiens)", "class 1"],
  ["CCc1cc2c(N3CCN(C(=O)c4ccc(-c5ccccc5)cc4)CC3)nc(NCCC(=O)O)nc2s1", "P2Y12 receptor (Homo sapiens)", "class 0"]
]}

Hi team, for CCOC(CCNc1nc(N2CCN(C(=O)c3ccc(-c4ccccc4)cc3)CC2)c2cc(CC)sc2n1)OCC , is the recorded inhibition at 10 µM at or above 90%? class 0

Could you please find out whether CCc1cc2c(N3CCN(C(=O)c4cccc(-c5ccccc5)c4)CC3)nc(NC[C@@H](O)CO)nc2s1 has inhibition at 10 µM that meets 90% or exceeds it? class 1

Reported inhibition at 10 µM at or above 90%? CCc1cc2c(N3CCN(C(=O)Cc4ccccc4)CC3)nc(NCCO)nc2s1 class 0

inhibition at 10 µM >= 90% for CCc1cc2c(N3CCN(C(=O)c4cccc(-c5ccccc5)c4)CC3)nc(NC(CO)CO)nc2s1 ? class 1

Please tell me: is the molecule CCc1cc2c(N3CCN(C(=O)c4ccc(-c5ccccc5)cc4)CC3)nc(NC[C@@H](O)CO)nc2s1 at or over 90% in terms of inhibition at 10 µM? class 1

Determine whether this molecule has inhibition at 10 µM no lower than 90%: CCc1cc2c(N3CCN(C(=O)c4cccc(-c5ccccc5)c4)CC3)nc(NC[C@H](O)CO)nc2s1 class 1

Reported inhibition at 10 µM at or above 90%? CCc1cc2c(N3CCN(C(=O)CC(F)(F)F)CC3)nc(NC[C@@H](O)CO)nc2s1 class 0

Threshold query (inhibition at 10 µM >= 90%) on CCc1cc2c(N3CCN(C(=O)c4ccc(-c5ccccc5)cc4)CC3)nc(NCCC(=O)NC(CO)CO)nc2s1 class 1
